- Target: Human PD-L1/PD-1 (Homo sapiens)
- Construct: TVMV protease cleavage site (C); made in house; host or cells: HEK293T cells
- Sequence (Q9NZQ7 with tags, fused parts or gaps): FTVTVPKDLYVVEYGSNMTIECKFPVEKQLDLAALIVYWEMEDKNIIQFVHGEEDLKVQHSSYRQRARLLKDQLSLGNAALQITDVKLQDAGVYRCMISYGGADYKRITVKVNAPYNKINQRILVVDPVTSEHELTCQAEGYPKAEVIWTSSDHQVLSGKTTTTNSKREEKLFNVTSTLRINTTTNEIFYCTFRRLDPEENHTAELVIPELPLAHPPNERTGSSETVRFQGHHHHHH
- Test details: HTRF Human PD-L1/PD-1 binding assay (PD-1-Ig/PD-L1-His)
- Condition notes: PD-L1-His 10 nM, PD-1-Ig 20 nM; class symbol; read-out: HTRF Human PD-L1/PD-1 Binding Assay IC50 Range
Where a SMILES comes first, the peptide text is derived from it. Bridges are numbered along the chain shown (N, C = ends). [ ]: non-standard residue; d: D form. ξ: configuration not given here. Bta = N[C@@H](Cc1csc2ccccc12)C(=O)O; Hyp = O=C(O)[C@@H]1C[C@@H](O)CN1; NMeNle = CCCC[C@H](NC)C(=O)O; hSer = N[C@@H](CCO)C(=O)O; NMeA = CN[C@@H](C)C(=O)O; Orn = NCCC[C@H](N)C(=O)O; Dab = NCC[C@H](N)C(=O)O; Dap = NC[C@H](N)C(=O)O; ξPip = O=C(O)C1CCCCN1; ξC = NC(CS)C(=O)O
Measured quantity: IC50

1. CCCC[C@H]1C(=O)N(C)[C@@H](CCCC)C(=O)N[C@@H](CCCN)C(=O)N[C@H](C(=O)NCC(N)=O)CSCC(=O)N[C@@H](Cc2ccc(O)cc2)C(=O)N2CCCCC2C(=O)N[C@@H](CC(=O)O)C(=O)N2CCC[C@H]2C(=O)N[C@@H](CN)C(=O)N[C@@H](CCC(=O)O)C(=O)N2C[C@H](O)C[C@H]2C(=O)N[C@@H](Cc2c[nH]c3ccccc23)C(=O)N[C@@H](CCN)C(=O)N[C@@H](Cc2c[nH]c3ccccc23)C(=O)N1C (some centres unmarked) [Example 1528] ({CH2CO}-Y[ξPip]DP[Dap]E[Hyp]W[Dab]W[NMeNle][NMeNle][Orn]CG-NH2; thioether N-14)	10 to 99.9 nM
2. CCCC[C@H]1C(=O)N[C@@H](CC(N)=O)C(=O)N2CCC[C@H]2C(=O)N[C@@H](CO)C(=O)N[C@@H](CCO)C(=O)N2CCC[C@H]2C(=O)N[C@@H](Cc2c[nH]c3ccccc23)C(=O)N[C@@H](CCO)C(=O)N[C@@H](Cc2c[nH]c3ccccc23)C(=O)N(C)[C@@H](C)C(=O)N(C)[C@@H](C)C(=O)N[C@@H](CCCCN)C(=O)NC(C(=O)NCC(N)=O)CSCC(=O)N[C@@H](Cc2ccc(O)cc2)C(=O)N1C (some centres unmarked) [Example 10214] ({CH2CO}-Y[NMeNle]NPS[hSer]PW[hSer]W[NMeA][NMeA]K[ξC]G-NH2; thioether N-14)	1000 to 10000 nM
3. CCCC[C@H]1C(=O)N(C)CC(=O)N[C@@H](CC(=O)O)C(=O)NC(C(C)c2ccccc2)C(=O)N(C)[C@@H](Cc2ccccc2)C(=O)N[C@@H](Cc2ccc(O)cc2)C(=O)N(C)CC(=O)N[C@@H](Cc2c[nH]c3ccccc23)C(=O)N[C@@H](Cc2ccc(O)cc2)C(=O)N[C@@H](CC(C)C)C(=O)N[C@H](C(=O)NCC(N)=O)CSCC(=O)N[C@@H](Cc2ccccc2)C(=O)N(C)[C@@H](Cc2ccccc2)C(=O)N1C (single isomer, unassigned) [Example 3230-C]	100 to 990 nM
4. CCCC[C@H]1C(=O)N(C)[C@@H](CCCC)C(=O)N[C@@H](CCCNC(=N)N)C(=O)NC(C(=O)NCC(N)=O)CSCC(=O)N[C@@H](Cc2ccc(O)cc2)C(=O)N(C)[C@@H](C)C(=O)N[C@@H](CC(N)=O)C(=O)N2CCC[C@H]2C(=O)N[C@@H](CO)C(=O)N[C@@H](CCO)C(=O)N2CCC[C@H]2C(=O)N[C@@H](Cc2c[nH]c3ccccc23)C(=O)N[C@@H](CO)C(=O)N[C@@H](Cc2csc3ccccc23)C(=O)N1C (some centres unmarked) [Example 10049] ({CH2CO}-Y[NMeA]NPS[hSer]PWS[Bta][NMeNle][NMeNle]R[ξC]G-NH2; thioether N-14)	1 to 9.9 nM

--- query ---
What the record says about CCCC[C@H]1C(=O)N(C)[C@@H](CCCC)C(=O)N[C@@H](CCC(=O)O)C(=O)N[C@H](C(=O)NCC(N)=O)CSCC(=O)N[C@@H](Cc2ccc(O)cc2)C(=O)N(C)[C@@H](C)C(=O)N[C@@H](CC(=O)O)C(=O)N2CCC[C@H]2C(=O)N[C@@H](CO)C(=O)N[C@@H](CCC(N)=O)C(=O)N2C[C@H](O)C[C@H]2C(=O)N[C@@H](Cc2c[nH]c3ccccc23)C(=O)N[C@@H](CCN)C(=O)N[C@@H](Cc2c[nH]c3ccccc23)C(=O)N1C [Example 5221] ({CH2CO}-Y[NMeA]DPSQ[Hyp]W[Dab]W[NMeNle][NMeNle]ECG-NH2; thioether N-14) : IC50 is 1 to 9.9 nM
